All values here come from paper PMC8913300.

# TGT: DnaJB4 (human, UniProt Q9UDY4 1-337)
# Sequence (Q9UDY4 whole entry): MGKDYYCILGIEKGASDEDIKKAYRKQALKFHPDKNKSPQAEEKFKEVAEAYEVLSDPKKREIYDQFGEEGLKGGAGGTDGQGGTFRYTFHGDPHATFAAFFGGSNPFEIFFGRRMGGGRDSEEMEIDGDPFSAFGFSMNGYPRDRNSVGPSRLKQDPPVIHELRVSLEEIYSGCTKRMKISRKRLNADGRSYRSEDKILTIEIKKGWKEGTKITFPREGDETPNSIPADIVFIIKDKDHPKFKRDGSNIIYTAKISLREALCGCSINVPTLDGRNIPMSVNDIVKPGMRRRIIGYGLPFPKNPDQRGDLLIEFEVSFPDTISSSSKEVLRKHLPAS
# METHOD_DESCRIPTION: FP
pKd: −log10 of the molar value. No end group written: not given here.

BINDER	pKd
GSGPEIEEVD-OH (not fully specified (N-terminus); printed as FITC-Ahx-GSGPEIEEVD) [Hsp72 T636E tracer FITC-Ahx-GSGPEIEEVD]	5.75
